Provenance of the data: PubChem BioAssay (NCATS)

Tested on: FAB9
TEST_DETAILS: qHTS profiling for inhibitors of Plasmodium falciparum proliferation (AID 504749); also: nearly all actives have a fitted effect of over 60% in size
STATED_CONDITIONS: P. falciparum in erythrocytes, SYBR Green DNA, 72 h; series mostly up to 28.7 µM
Results filed as inconclusive are left out. Active and inactive are the calls of the source. Calls follow the shape of the dose curve; as a rule, active = well fitted inhibition curve with a large enough effect; inconclusive = small, poorly fitted or top-dose-only effect; inactive = flat fitted curve, though single readings scatter.
MEASURED_ENDPOINT: outcome

# example entries with known answers
MOLECULE: Cc1cc(O)cc(C)c1Cl
MEASURED_ENDPOINT: outcome
EXPERIMENTAL_VALUE: inactive

MOLECULE: CC(=O)OC[C@H]1O[C@@](COC(C)=O)(O[C@H]2O[C@H](COC(C)=O)[C@@H](OC(C)=O)[C@H](OC(C)=O)[C@H]2OC(C)=O)[C@@H](OC(C)=O)[C@@H]1OC(C)=O
MEASURED_ENDPOINT: outcome
EXPERIMENTAL_VALUE: inactive

MOLECULE: CN1C[C@@H]2C[C@H]1CN2c1cc2c(cc1F)c(=O)c(C(=O)O)cn2C1CC1
MEASURED_ENDPOINT: outcome
EXPERIMENTAL_VALUE: inactive

MOLECULE: CCN(CC)CCc1nc(-c2ccccc2)no1
MEASURED_ENDPOINT: outcome
EXPERIMENTAL_VALUE: inactive

// next entry
What value of outcome has been recorded for this entry: CCN1CC(CCN2CCOCC2)C(c2ccccc2)(c2ccccc2)C1=O (stereo not given)
inactive

---

Test system: TAB113
TEST_DETAILS: qHTS profiling for inhibitors of Plasmodium falciparum proliferation (AID 504749); also: nearly all actives have a fitted effect of over 60% in size
STATED_CONDITIONS: P. falciparum in erythrocytes, SYBR Green DNA, 72 h; series mostly up to 28.7 µM
Results filed as inconclusive are left out. Calls of active or inactive are those of the source. The call rests on the fitted dose curve; in most records, active means well fitted inhibition curve with a large enough effect; inconclusive means small, poorly fitted or top-dose-only effect; inactive means flat fitted curve, though single readings scatter.
MEASURED_ENDPOINT: outcome

In the examples that follow, each entry is paired with its recorded outcome.
COMPOUND: O=C(O)c1cc(=O)c2ccccc2o1
EXPERIMENTAL_VALUE: inactive
--
COMPOUND: Cc1cc(C)nc(NS(=O)(=O)c2ccc(N)cc2)n1
EXPERIMENTAL_VALUE: inactive
--
COMPOUND: NNC(=O)CP(=O)(c1ccccc1)c1ccccc1
EXPERIMENTAL_VALUE: inactive
--
COMPOUND: O=C(O)CNC(=O)c1ccccc1I
EXPERIMENTAL_VALUE: inactive
--
COMPOUND: O=C(NCCCN1CCOCC1)c1ccc(Cl)cc1
EXPERIMENTAL_VALUE: inactive

Request the reported outcome associated with COc1ccc(Cc2cnc(N)nc2N)cc1OC
inactive

# get_value(readout='outcome', item= NCC1CCC(C(=O)Oc2ccc(CCC(=O)O)cc2)CC1 (configuration not stated) )
inactive

For CCOC(=O)c1cccnc1 , what is its reported outcome?
inactive

What measured outcome goes with C=CCSCC1Nc2cc(Cl)c(S(N)(=O)=O)cc2S(=O)(=O)N1 (configuration not stated) ?
inactive

Would you mind telling me what outcome value was observed for CC(C)=CCC/C(C)=C/CO ?
inactive

Record request: outcome value, item CN(C/C=C/C#CC(C)(C)C)Cc1cccc2ccccc12
inactive

Quick one: outcome of O=C1c2ccccc2S(=O)(=O)N1CCCCN1CCN(c2ncccn2)CC1 ?
inactive

---

TEST_DETAILS: S16 Schwann cell PMP22 intronic element firefly luciferase assay (AID 624032); also: nearly all actives have a fitted effect of over 30% in size
STATED_CONDITIONS: S16 rat Schwann cells, PMP22 element FLuc, 24 h; series mostly up to 57.5 µM
Records with an inconclusive call do not appear. Activity calls are given as the source filed them. The call rests on the fitted dose curve; in most records, active means well fitted inhibition curve with a large enough effect; inconclusive means small, poorly fitted or top-dose-only effect; inactive means no such curve, though single readings can be large or run the other way. Where a SMILES comes first, the peptide text is derived from it. Bridges are numbered along the chain shown (N, C = ends). [ ]: non-standard residue; d: D form. hArg = N=C(N)NCCCC[C@H](N)C(=O)O; Mpa = O=C(O)CCS
MEASURED_ENDPOINT: outcome

Worked set:
MOLECULE: CC(=O)N(CC(O)CO)c1c(I)c(C(=O)NCC(O)CO)c(I)c(C(=O)NCC(O)CO)c1I (stereo unspecified)
EXPERIMENTAL_VALUE: inactive
--
MOLECULE: NCc1ccc(S(N)(=O)=O)cc1
EXPERIMENTAL_VALUE: inactive
--
MOLECULE: CCCCCC(C)N (stereo unspecified)
EXPERIMENTAL_VALUE: inactive
--
MOLECULE: CC(=O)Oc1cccc(O)c1
EXPERIMENTAL_VALUE: inactive
--
MOLECULE: CCN1CC(CCN2CCOCC2)C(c2ccccc2)(c2ccccc2)C1=O (stereo unspecified)
EXPERIMENTAL_VALUE: inactive

Which value of outcome has been reported for NC(=O)[C@@H]1CSSCCC(=O)N[C@@H](CCCCN=C(N)N)C(=O)NCC(=O)N[C@@H](CC(=O)O)C(=O)N[C@@H](Cc2c[nH]c3ccccc23)C(=O)N2CCC[C@H]2C(=O)N1 ([Mpa][hArg]GDWPC-NH2; disulfide 1-7) in the records?
inactive
